Source listed as patent US20200325230A1.

biological target: T1, human BTLA-human Fc (human, UniProt Q7Z6A9 31-157); test: ELISA, inhibition of BTLA-human Fc binding to coated human HVEM-ratIgG2a
T1 construct: not shown: human Fc
For each entry below, report its IC50 value.
Just the number please, in nM, no unit attached.

Lab note: anti-BTLA antibody 16-H16A (antibody, V domains shown) VH: QLQLQESGPGLVKPSETLSLTCTVSGDSISSSGYYWGWIRQPPGKGLEWIGSIYYSGSTHYNPSLKSRVTISVDSSKSQFSLKLSSVTAADTAVYCCARHKVDSSGWPLDYWGQGTLVTVSS VL: EIVMTQSPATLSLSPGERATLSCRASQSISSSCLSWYQQKPGQAPRLLIYDTSTRATGIPARFSGSGSGTDFTLTISSLQPEDFAVYYCQQDYNLPLTFGGGTKVEIK gave IC50 of 3

The binder listed as anti-BTLA antibody 13-F7A (antibody, V domains shown) VH: EVQLLESGGGLVQPGGSLRLSCAASGFTSSSYGMSWVRQAPGKGLEWVSGISGSGGGTYYADSVKGRFTISRDNSKNTLYLQMNSLRAEDTAVYYCAKGDYYGSGSYPLFDYWGQGTLVTVSS VL: AIQLTQSPSSLSASVGDRVTITCRASQDISSALAWYQQKPGKAPKLLISDASSLESGVPSRFSGSGSGTDFTLTISSLQPEDFATFYCQQFNNYPPTFGPGTKVDIK has a reported IC50 of 2.5

Value of measured IC50 for the entry anti-BTLA antibody 16-I20A (antibody, V domains shown, also called 16420A) VH: QVQLQESGPGLVKPSETLSLTCTVSGGSISYYYWSWIRQPPGTGLEWIGYIYYSGSTKYNPSLKRRVTISVDTSKNQFSLKLSSVTAADTAVYYCARIRGDSYGWDFDYWGQGTLVTVSS VL: EIVMTQSPATLSLSPGERATLSCRASQSISNNYLFWYQQKPGQAPRLLIYGASTRATGIPARFSGSGSGTDFTLTISSLQPEDFAVYYCQQDYNFPLTFGGGTKVEIK : 2.9

anti-BTLA antibody 12-I8A (antibody, V domains shown, also called 12-IBA) VH: QVQLVESGGGVVQPGRSLRLSCAASGFTFSNYGMHWVRQAPGKGLEWVAVIWYNGSNKYYADSVKGRFTISRDNSKNTLYLQMNSLRAEDTAVYYCARDDVVRYFDWPLDYWGQGTLVTVSS VL: AIQMTQSPSSLSASVGDRVTITCRASQGIRNDLGWYQQKPGKAPKVLIYAASSLQSGVPSRFSGSGSGTDFTLTISSLQPEDFATYYCLQDYNYPWTFGQGTKVEIK yielded IC50 of 4.4
